Listed here are molecules together with their documented EC50.
# Assay Method Text: Inhibition of amyloid beta (1 to 42 residues) (unknown origin) aggregate-induced toxicity in rat PC12 cells assessed as cell viability at 4 to 100 ug/ml pre-incubated for 24 hrs with Abeta ( 1 to 42) followed by compound-Abeta (1 to 42) mixture addition to cells and measured after 24 hrs by MTT assay
Numeric only. Scale: µM

Solved cases below.
# Cpd Smiles, EC50 (µM)
measured = [
    ("CN1C(=O)[C@@]23CCC(=O)N2C[C@@]12C[C@@]1(C(=O)Nc4c1ccc1c4C=CC(C)(C)O1)C(C)(C)[C@@H]2C3", 89.9),
    ("O=C(/C=C/c1ccc(O)c(O)c1)O[C@H](Cc1ccc(O)c(O)c1)C(=O)O", 57.2),
    ("C[C@@H]1C[C@@]23C[C@H]4C(C)(C)[C@@]5(C[C@]4(CN2C1=O)NC3=O)C(=O)Nc1c5ccc2c1C=CC(C)(C)O2", 97.9),
]

Consider now this further molecule.
Consider the molecule shown here: C[C@H]1CN2C[C@]34C[C@@]5(C(=O)Nc6c5ccc5c6OC=CC(C)(C)O5)C(C)(C)[C@@H]3C[C@@]2(C1)C(=O)N4C What is its recorded EC50? 105
